Each entry below carries its reported inhibition at 0.1 µM.
- System Tested: Kv1.5 potassium channel (Homo sapiens, UniProt P22460)
- Construct: expressed in transfected cells
- Sequence (P22460 whole entry): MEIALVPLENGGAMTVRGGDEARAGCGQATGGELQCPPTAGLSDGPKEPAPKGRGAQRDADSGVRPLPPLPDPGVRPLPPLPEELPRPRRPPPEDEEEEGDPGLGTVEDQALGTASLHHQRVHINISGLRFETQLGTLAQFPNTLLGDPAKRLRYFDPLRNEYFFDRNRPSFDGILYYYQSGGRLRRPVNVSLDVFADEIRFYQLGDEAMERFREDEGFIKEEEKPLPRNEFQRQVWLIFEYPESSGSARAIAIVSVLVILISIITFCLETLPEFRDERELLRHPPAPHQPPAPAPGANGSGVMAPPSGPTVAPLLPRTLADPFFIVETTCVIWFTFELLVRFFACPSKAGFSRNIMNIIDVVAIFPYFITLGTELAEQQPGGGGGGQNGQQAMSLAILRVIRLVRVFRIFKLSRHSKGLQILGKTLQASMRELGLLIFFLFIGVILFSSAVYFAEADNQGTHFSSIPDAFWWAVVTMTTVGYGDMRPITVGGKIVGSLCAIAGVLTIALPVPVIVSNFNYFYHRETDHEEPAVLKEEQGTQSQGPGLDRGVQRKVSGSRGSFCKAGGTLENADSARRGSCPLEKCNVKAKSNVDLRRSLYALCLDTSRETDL
- Method Notes: Whole-cell patch clamp electrophysiological recording of Kv1.5 currents in CHO cells
- Format: cell-based
- Run Parameters: CHO cells stably expressing Kv1.5, whole-cell voltage clamp, holding potential −80 mV, one depolarization every 10 seconds, read-out: Steady-state Current Inhibition at 0.1 μM (%)
Field format: number, assumed %, no unit text.

>>> reported_value("Cn1ccnc1CN(C(=O)[C@@H]1C[C@H]1c1ccccc1)c1ccc2c(c1)[C@@H](NS(=O)(=O)c1ccc(Cl)cc1)CCC2")
76
>>> reported_value("CCc1ccc(S(=O)(=O)N[C@H]2CCCc3ccc(N(Cc4nccn4C)C(=O)[C@@H]4C[C@H]4c4ccc(Cl)cc4)cc32)cc1")
95
>>> reported_value("Cc1cccc(CN(C(=O)C2CC2c2ccccc2)c2ccc3c(c2)C(NS(=O)(=O)c2ccc(F)cc2)CCC3)n1 (centres unmarked)")
53
>>> reported_value("Cn1ccnc1CN(C(=O)[C@@H]1C[C@H]1c1ccc(Cl)cc1)c1ccc2c(c1)[C@@H](NS(=O)(=O)c1ccccc1)CCC2")
92

Could you now consider this next compound?
In: State the recorded inhibition at 0.1 µM for this entry: Cn1ccnc1CN(C(=O)[C@@H]1C[C@H]1c1ccc(F)cc1)c1ccc2c(c1)[C@@H](NS(=O)(=O)c1ccc(F)c(Cl)c1)CCC2
Out: 91

All values here come from patent US6620849B2.
